- study target: purified human plasma kallikrein (Homo sapiens (Human))
- protocol description: Plasma kallikrein enzyme inhibition assay (chromogenic substrate S-2302)
- Assay type: biochemical
- condition parameters: measured at 37° C. (*)
Structures can show the parent of a compound that is named as a salt.

compound | Ki (nM)
O=C(O)c1ccc(NC(=O)[C@H]2c3cccc(-n4cnnc4)c3CCN2C(=O)[C@H]2CC(c3cccc(Cl)c3F)=NO2)cc1 [Example 248, TFA salt] | 83.2
O=C(O)c1ccc(NC(=O)[C@@H]2c3cccc(N4CCN(CC(F)(F)F)CC4)c3CCN2C(=O)[C@H]2CC(c3cccc(Cl)c3F)=NO2)cc1 [Example 230, TFA salt] | 12.3
O=C(O)c1ccc(NC(=O)[C@@H]2c3cccc(N4CCC(C5COC5)CC4)c3CCN2C(=O)[C@H]2CC(c3cccc(Cl)c3F)=NO2)cc1 [Example 234, TFA salt] | 26.9

###

Listed next: entries and their corresponding pKi.
- study target: purified human plasma kallikrein (Homo sapiens (Human), UniProt P03952)
- Sequence (P03952 391-638): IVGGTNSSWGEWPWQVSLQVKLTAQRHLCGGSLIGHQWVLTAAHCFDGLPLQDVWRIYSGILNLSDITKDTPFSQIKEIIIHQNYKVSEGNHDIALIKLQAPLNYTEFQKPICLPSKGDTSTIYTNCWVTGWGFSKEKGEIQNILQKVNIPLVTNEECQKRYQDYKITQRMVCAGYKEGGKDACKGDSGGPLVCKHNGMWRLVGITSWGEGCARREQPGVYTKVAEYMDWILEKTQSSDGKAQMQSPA
- Sequence (P03952 20-390 partner): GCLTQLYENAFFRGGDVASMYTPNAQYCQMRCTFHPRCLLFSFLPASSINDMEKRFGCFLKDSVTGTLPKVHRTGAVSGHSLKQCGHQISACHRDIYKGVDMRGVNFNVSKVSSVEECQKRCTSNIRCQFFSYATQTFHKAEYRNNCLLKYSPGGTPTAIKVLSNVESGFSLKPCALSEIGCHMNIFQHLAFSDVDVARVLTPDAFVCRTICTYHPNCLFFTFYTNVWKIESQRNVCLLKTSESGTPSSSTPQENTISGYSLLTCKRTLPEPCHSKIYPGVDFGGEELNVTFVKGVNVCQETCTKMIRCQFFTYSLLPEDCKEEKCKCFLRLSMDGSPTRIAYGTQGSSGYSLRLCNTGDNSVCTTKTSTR
- protocol description: Plasma kallikrein enzyme inhibition assay (chromogenic substrate S-2302)
- Assay type: biochemical
- condition parameters: measured at 25° C. (no asterisk)
pKi: −log10 of the molar value. Counter-ions that a name gives are not always drawn.
outcome measure: pKi

compound | test value
CN1CCN(c2cccc3c2CCN(C(=O)c2cncc(-c4cccc(Cl)c4)c2)C3C(=O)Nc2ccc(C(=O)O)cc2)CC1 (stereo not shown) [Example 320, TFA salt] | 6.91
Cc1nn(C)c2c1C(C(=O)Nc1ccc(C(=O)O)cc1)N(C(=O)c1cn(-c3cccc(Cl)c3F)nn1)CC2 (stereo not shown) | 8.02
O=C(O)c1ccc(NC(=O)C2c3ccccc3CCN2C(=O)c2cn(-c3cccc(Cl)c3F)nn2)cc1 (stereo not shown) | 7.68
COc1cccc2c1CCN(C(=O)c1cn(-c3cccc(Cl)c3F)nn1)C2C(=O)Nc1ccc(C(=O)O)cc1 (racemic) [Example 275, TFA salt] | 7.93

###

- study target: purified human Factor XIa (Homo sapiens (Human), UniProt P03951)
- Sequence (P03951 388-625): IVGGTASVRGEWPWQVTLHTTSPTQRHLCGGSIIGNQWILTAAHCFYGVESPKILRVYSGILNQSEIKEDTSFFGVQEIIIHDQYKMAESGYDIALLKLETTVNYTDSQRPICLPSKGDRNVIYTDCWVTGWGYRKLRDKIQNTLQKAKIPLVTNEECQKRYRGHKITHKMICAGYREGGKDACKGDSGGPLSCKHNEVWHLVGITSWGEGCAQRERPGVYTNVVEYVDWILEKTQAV
- Sequence (P03951 19-387 partner): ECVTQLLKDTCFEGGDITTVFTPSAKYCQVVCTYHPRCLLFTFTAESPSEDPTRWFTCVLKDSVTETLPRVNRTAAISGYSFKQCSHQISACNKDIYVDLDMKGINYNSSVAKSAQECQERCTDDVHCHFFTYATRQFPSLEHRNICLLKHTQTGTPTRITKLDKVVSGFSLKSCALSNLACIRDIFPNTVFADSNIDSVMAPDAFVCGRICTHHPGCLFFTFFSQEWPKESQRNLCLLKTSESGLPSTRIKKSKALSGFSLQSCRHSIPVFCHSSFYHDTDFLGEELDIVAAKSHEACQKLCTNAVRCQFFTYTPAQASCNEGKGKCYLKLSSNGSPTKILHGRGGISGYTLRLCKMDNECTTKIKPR
- protocol description: Factor XIa enzyme inhibition assay (chromogenic substrate S-2366)
- condition parameters: read-out: Factor XIa Ki; measured at 25° C.
pKi: −log10 of the molar value. Where a name gives a salt, the structure may show the parent alone.
Listed next: entries and their corresponding pKi.
outcome measure: pKi

compound | test value
NCc1cccc(-c2cccc3c2CCN(C(=O)c2cn(-c4cccc(Cl)c4F)nn2)C3C(=O)Nc2ccc(C(=O)O)cc2)c1 (stereo not drawn) [Example 173, TFA salt] | > 8.30
CN(C)S(=O)(=O)c1cccc(-c2cccc3c2CCN(C(=O)c2cn(-c4cccc(Cl)c4F)nn2)C3C(=O)Nc2ccc(C(=O)O)cc2)c1 (stereo not drawn) | > 8.30
CCOc1ccc(-c2cccc3c2CCN(C(=O)c2cn(-c4cccc(Cl)c4F)nn2)C3C(=O)Nc2ccc(C(=O)O)cc2)cn1 (stereo not drawn) [Example 178, TFA salt] | > 8.30
CN(C)C1CCN(c2cccc3c2CCN(C(=O)c2cnn(-c4cccc(Cl)c4F)c2)C3C(=O)Nc2ccc(-c3ncco3)cc2)CC1 (stereo not drawn) [Example 93, bis-TFA salt] | 8.18
Cn1ncc2c(-c3cccc4c3CCN(C(=O)c3cn(-c5cccc(Cl)c5F)nn3)C4C(=O)Nc3ccc(C(=O)O)cc3)cccc21 (stereo not drawn) | > 8.30
CN1CCN(c2cccc3c2CCN(C(=O)c2cnn(-c4cccc(Cl)c4)c2)C3C(=O)Nc2ccc(C(=O)O)cc2)CC1 (stereo not drawn) [Example 200, TFA salt] | 7.38

Taken from patent US9738655B2.
